I'd appreciate it if you could supply IC50 at 72 h values for the items below.
experiment: Cytotoxicity against mouse 3T3-L1 cells incubated for 72 hrs by CCK8 assay; assay type: toxicity, cell-based

*Q* Fill in the blank: the reported IC50 at 72 h of CS(=O)(=O)N1CCN(Cc2coc(-c3ccc(C(F)(F)F)cc3)n2)CC1 is ____.
*A* > 100 µM

*Q* Fill in the blank: the reported IC50 at 72 h of COC(=O)C1CCN(Cc2coc(-c3ccc(C(F)(F)F)cc3)n2)CC1 is ____.
*A* > 100 µM

*Q* Fill in the blank: the reported IC50 at 72 h of COC1CCN(Cc2coc(-c3ccc(C(F)(F)F)cc3)n2)CC1 is ____.
*A* > 100 µM
